Assign pKd to each entry below.
# target-or-system: T1, DFNB31_3, Q9P202
# T1 sequence (Q9P202 811-907, limits assumed, looked up): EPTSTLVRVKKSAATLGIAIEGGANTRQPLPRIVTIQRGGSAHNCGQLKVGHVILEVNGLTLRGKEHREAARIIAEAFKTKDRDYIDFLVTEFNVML
# assay-overview: holdup assay
# Set-up: key: below the threshold = too weak to quantify, mostly under pKd 3.1 to 4
# condition-info: plain residues with an end cap or a label only (N-terminal biotin on a linker: ado-ado)
One number for each entry.

Some entries whose results are on file:
> print(dat)
                       binder  observed
1  GQNMTVSVVI [PRLHR, P49683]      4.21
2   EFKQTSSFLV [JAM1, Q9Y624]      3.93
3   THREVKFTSL [CD46, P15529]      3.85

Next up:
Determine its reported pKd: TKDKVQETQI [LRRC4, Q9HBW1]
4.11
